# experimentalTarget: recombinant TFPI of the FXa restoring assay (human, mouse or rat; not specified for Tables 9 and 10)
# Sequence (P10646 29-304): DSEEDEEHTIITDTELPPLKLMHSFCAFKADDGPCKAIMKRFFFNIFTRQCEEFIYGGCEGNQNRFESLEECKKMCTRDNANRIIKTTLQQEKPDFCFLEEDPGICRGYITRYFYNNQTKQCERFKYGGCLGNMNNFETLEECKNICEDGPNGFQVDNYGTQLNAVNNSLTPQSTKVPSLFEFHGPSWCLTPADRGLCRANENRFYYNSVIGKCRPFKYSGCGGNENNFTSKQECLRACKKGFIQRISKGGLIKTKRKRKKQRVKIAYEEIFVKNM
# protocol: cell-based or functional assay
Improvement vs parental, FXa restoring assay values, listed per item
Write it as a number; the unit fold goes unstated.

Answered cases to consult:
4B7 HC_D62R (Fab, V domains shown, also called 4B7-D62R) VH: QVQLQQSGPGLVKPSQTLSLTCAISGDSVSSNSAAWSWIRQSPGRGLEWLGIIYKRSKWYNRYAVSVKSRITINPDTSKNQFSLQLNSVTPEDTAVYYCARWHSDKHWGFDYWGQGTLVTVSS VL: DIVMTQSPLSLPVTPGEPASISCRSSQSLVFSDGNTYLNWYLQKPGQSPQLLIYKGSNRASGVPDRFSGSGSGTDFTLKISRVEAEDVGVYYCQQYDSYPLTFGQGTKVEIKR; 25
2A8 HC_I51E (Fab, V domains shown, also called 2A8-6) VH: QVQLVESGGGLVQPGGSLRLSCAASGFTFRSYGMSWVRQAPGKGLEWVSSERGSSSSTYYADSVKGRFTISRDNSKNTLYLQMNSLRAEDTAVYYCARKYRYWFDYWGQGTLVTVSS VL: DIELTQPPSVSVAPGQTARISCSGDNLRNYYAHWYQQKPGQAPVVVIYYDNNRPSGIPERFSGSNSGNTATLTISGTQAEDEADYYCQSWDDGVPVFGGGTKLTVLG; 0.9

Lab note: next binder to report on.
Look up and state reported Improvement vs parental, FXa restoring assay for 2A8 LC_D91W (Fab, V domains shown, also called 2A8-17) VH: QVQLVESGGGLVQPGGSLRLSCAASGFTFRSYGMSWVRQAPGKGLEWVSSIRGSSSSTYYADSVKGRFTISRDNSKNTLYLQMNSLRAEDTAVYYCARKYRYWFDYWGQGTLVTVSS VL: DIELTQPPSVSVAPGQTARISCSGDNLRNYYAHWYQQKPGQAPVVVIYYDNNRPSGIPERFSGSNSGNTATLTISGTQAEDEADYYCQSWWDGVPVFGGGTKLTVLG
3
